test: Terminal plasma and brain concentrations in AC-MES studies (UHPLC-MS/MS); assay type: in vivo, mouse; settings: CF-1, mouse, in vivo, po, 3 mg/kg, Study 4D; Cenobamate 3 mg/kg single oral dose; read-out: B/P Ratio (brain to plasma ratio)
MEASUREMENT LABEL: Kp at 2 h
Form rule: numeric answer, no unit written next to it.

Ask: # Kp at 2 h lookup, item NC(=O)O[C@@H](Cn1ncnn1)c1ccccc1Cl [Cenobamate, reference compound]
Reply: 0.29

* * *

test: Plasma and brain concentrations after MES testing (UHPLC-ESI-MS/MS); settings: CF-1, mouse, in vivo, po, 2 mg/kg, Concentration Brain, Compound A 2 mg/kg PO, 0.5 hr
MEASUREMENT LABEL: concentration at 0.5 h (ng/g)
// note: answer is a bare numeric in ng/g

Ask: Could you tell me which concentration at 0.5 h is on file for Cc1cc(N2CCc3cc(F)ccc3C2)cc(C)c1NC(=O)CC(C)(C)C ?
Reply: 132

* * *

test: Terminal plasma and brain concentrations in AC-MES studies (UHPLC-MS/MS); type: in vivo, mouse; conditions: CF-1, mouse, in vivo, 10 mg/kg, Study 4D; Cenobamate 10 mg/kg single oral dose, 2 h pre-treatment; CF-1 mice; read-out: Mean Plasma
MEASUREMENT LABEL: concentration at 2 h (µM)
Report the figure in µM without appending any unit label.

Ask: Quick check: concentration at 2 h of NC(=O)O[C@@H](Cn1ncnn1)c1ccccc1Cl [Cenobamate, reference compound] ?
Reply: 87

* * *

experiment: Plasma and brain concentrations after MES testing (UHPLC-ESI-MS/MS); conditions: CF-1, mouse, in vivo, po, 1 mg/kg, Concentration Plasma, Compound A 1 mg/kg PO single dose, tissue collection 2 hr
MEASUREMENT LABEL: concentration at 2 h (nM)
Reply numerically in nM, unit not repeated.

Ask: Data request, read-out concentration at 2 h, for Cc1cc(N2CCc3cc(F)ccc3C2)cc(C)c1NC(=O)CC(C)(C)C
Reply: 100

* * *

assay: Terminal plasma and brain concentrations in AC-MES studies (UHPLC-MS/MS); type: in vivo, mouse; details: CF-1, mouse, in vivo, 7.5 mg/kg, Study 4E; Cenobamate 7.5 mg/kg single oral dose, 2 h pre-treatment; CF-1 mice; read-out: Mean Plasma
MEASUREMENT LABEL: concentration at 2 h (µM)
Just the number in µM, nothing appended.

Ask: So what does the record say about concentration at 2 h for NC(=O)O[C@@H](Cn1ncnn1)c1ccccc1Cl [Cenobamate, reference compound] ?
Reply: 78.1

* * *

test: Clinical observations / behavioral signs in AC-MES studies; type: in vivo, mouse; settings: male, CF-1, mouse, in vivo, 10 mg/kg, Study 2A, Compound A 10 mg/kg group; read-out: plasma concentration of individual mouse showing behavioral signs (tremors, decreased activity, splayed hindlimbs)
MEASUREMENT LABEL: concentration at 30 min
Write the quantity with the unit trailing the number.

Ask: What value of concentration at 30 min has been recorded for this entry: Cc1cc(N2CCc3cc(F)ccc3C2)cc(C)c1NC(=O)CC(C)(C)C [Compound A]
Reply: 391 nM

* * *

experiment: Terminal plasma and brain concentrations in AC-MES studies (UHPLC-MS/MS); assay type: in vivo, mouse; conditions: CF-1, mouse, in vivo, 6 mg/kg, Study 2A, Lacosamide 6 mg/kg PO, 2 h; read-out: B/P Ratio
MEASUREMENT LABEL: Kp at 2 h

Ask: Suppose we examine the compound COC[C@@H](NC(C)=O)C(=O)NCc1ccccc1 [Lacosamide, reference compound] ; what Kp at 2 h value has been reported?
Reply: 0.54

* * *

experiment: Terminal plasma and brain concentrations in AC-MES studies (UHPLC-MS/MS); format: in vivo, mouse; details: male, CF-1, mouse, in vivo, po, 1 mg/kg, Study 4A; Compound A 1 mg/kg single oral dose; read-out: B/P Ratio (brain to plasma ratio)
MEASUREMENT LABEL: Kp at 30 min

Ask: Give its Kp at 30 min value. Item: Cc1cc(N2CCc3cc(F)ccc3C2)cc(C)c1NC(=O)CC(C)(C)C
Reply: 1.85

* * *

assay: Terminal plasma and brain concentrations in AC-MES studies (UHPLC-MS/MS); type: in vivo, mouse; details: CF-1, mouse, in vivo, 6 mg/kg, Study 2D, Lacosamide 6 mg/kg PO, 2 h; read-out: Mean Brain
MEASUREMENT LABEL: concentration at 2 h (µM)
Field format: number, assumed µM, no unit text.

Ask: For COC[C@@H](NC(C)=O)C(=O)NCc1ccccc1 [Lacosamide, reference compound] , what is its reported concentration at 2 h?
Reply: 7.95

* * *

test: Terminal plasma and brain concentrations in AC-MES studies (UHPLC-MS/MS); format: in vivo, mouse; details: CF-1, mouse, in vivo, 2 mg/kg, Study 4F; Compound A 2 mg/kg PO alone, 0.5 h pre-treatment; CF-1 mice; read-out: Mean Brain
MEASUREMENT LABEL: concentration at 0.5 h (nM)
# output: bare number, implied unit nM

Ask: Can you look up the measured concentration at 0.5 h of Cc1cc(N2CCc3cc(F)ccc3C2)cc(C)c1NC(=O)CC(C)(C)C [Compound A] for me?
Reply: 250

* * *

assay: Terminal plasma and brain concentrations in AC-MES studies (UHPLC-MS/MS); type: in vivo, mouse; settings: male, CF-1, mouse, in vivo, po, 10 mg/kg, Study 2B, Compound A 10 mg/kg PO, 0.5 h; read-out: Mean Brain
MEASUREMENT LABEL: concentration at 0.5 h (nM)
Answer in nM, number only, no unit symbol.

Ask: Which concentration at 0.5 h value belongs to Cc1cc(N2CCc3cc(F)ccc3C2)cc(C)c1NC(=O)CC(C)(C)C ?
Reply: 910

* * *

assay: Terminal plasma and brain concentrations in AC-MES studies (UHPLC-MS/MS); assay type: in vivo, mouse; settings: CF-1, mouse, in vivo, Study 4G, analyte Compound A; 1 mg/kg in combination with Cenobamate 5 mg/kg; read-out: mean total plasma concentration
MEASUREMENT LABEL: concentration at 0.5 h
The answer should read as a number with its unit following.

Ask: May I ask what concentration at 0.5 h has been recorded for Cc1cc(N2CCc3cc(F)ccc3C2)cc(C)c1NC(=O)CC(C)(C)C [Compound A] ?
Reply: 110 nM

* * *

assay: Plasma and brain concentrations in 6 Hz studies (LC-MS/MS); assay type: in vivo, mouse; settings: CF-1, mouse, brain, po, 4 mg/kg, Study 3B, Compound A 4 mg/kg PO 1 h alone; read-out: Brain
MEASUREMENT LABEL: concentration at 1 h
Please provide the amount together with its unit, number first.

Ask: So what's the measured concentration at 1 h for this one? Cc1cc(N2CCc3cc(F)ccc3C2)cc(C)c1NC(=O)CC(C)(C)C
Reply: 30 nM

* * *

assay: Terminal plasma and brain concentrations in AC-MES studies (UHPLC-MS/MS); assay type: in vivo, mouse; details: male, CF-1, mouse, in vivo, po, 3 mg/kg, Study 2C, Compound A 3 mg/kg PO, 0.5 h, alone; read-out: B/P Ratio
MEASUREMENT LABEL: Kp at 0.5 h

Ask: Reported Kp at 0.5 h for Cc1cc(N2CCc3cc(F)ccc3C2)cc(C)c1NC(=O)CC(C)(C)C : what is it?
Reply: 1.79

* * *

assay: Plasma and brain concentrations after MES testing (UHPLC-ESI-MS/MS); settings: mouse, in vivo, 1 mg/kg, plasma concentration, Compound A 1 mg/kg, mean±SEM, n=15
MEASUREMENT LABEL: concentration at 2 h

Ask: Please report the recorded concentration at 2 h for Cc1cc(N2CCc3cc(F)ccc3C2)cc(C)c1NC(=O)CC(C)(C)C [Compound A] .
Reply: 66 nM

* * *

test: Terminal plasma and brain concentrations in AC-MES studies (UHPLC-MS/MS); type: in vivo, mouse; conditions: CF-1, mouse, in vivo, 5 mg/kg, Study 4F; Cenobamate 5 mg/kg PO alone, 2 h pre-treatment; CF-1 mice; read-out: Mean Plasma
MEASUREMENT LABEL: concentration at 2 h (µM)
Answer in µM, number only, no unit symbol.

Ask: Need concentration at 2 h of NC(=O)O[C@@H](Cn1ncnn1)c1ccccc1Cl [Cenobamate, reference compound] , thanks.
Reply: 31.3

* * *

experiment: Plasma and brain concentrations after MES testing (UHPLC-ESI-MS/MS); details: CF-1, mouse, in vivo, po, 1 mg/kg, Concentration Brain, Compound A 1 mg/kg PO, 0.5 hr;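 note: brain and plasma were sampled from mice right after the efficacy test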
MEASUREMENT LABEL: concentration at 0.5 h (ng/g)
Answer format: numeric, ng/g implied, no suffix.

Ask: Please give the measured concentration at 0.5 h for this molecule: Cc1cc(N2CCc3cc(F)ccc3C2)cc(C)c1NC(=O)CC(C)(C)C
Reply: 97.9

* * *

test: Terminal plasma and brain concentrations in AC-MES studies (UHPLC-MS/MS); type: in vivo, mouse; settings: CF-1, mouse, in vivo, 3 mg/kg, Study 4E; Cenobamate 3 mg/kg single oral dose, 2 h pre-treatment; CF-1 mice; read-out: Mean Brain
MEASUREMENT LABEL: concentration at 2 h (µM)
// note: answer is a bare numeric in µM

Ask: Need concentration at 2 h, item NC(=O)O[C@@H](Cn1ncnn1)c1ccccc1Cl [Cenobamate, reference compound]
Reply: 12.2
